This collection of values is drawn from patent US10799518B2.

# EXPERIMENTAL SYSTEM: human FPR2 receptor (Homo sapiens (Human), UniProt P25090)
# Sequence (P25090 whole entry): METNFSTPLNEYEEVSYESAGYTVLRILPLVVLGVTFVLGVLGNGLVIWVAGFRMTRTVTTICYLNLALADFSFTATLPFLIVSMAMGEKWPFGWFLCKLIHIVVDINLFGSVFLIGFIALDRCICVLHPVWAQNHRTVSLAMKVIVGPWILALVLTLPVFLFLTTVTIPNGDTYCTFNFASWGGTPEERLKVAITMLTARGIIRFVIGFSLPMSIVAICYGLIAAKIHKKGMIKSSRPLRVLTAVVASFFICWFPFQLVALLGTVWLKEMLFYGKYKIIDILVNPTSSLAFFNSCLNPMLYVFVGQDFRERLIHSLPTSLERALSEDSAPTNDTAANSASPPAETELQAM
# TEST PROTOCOL: FLIPR Ca+2 response in HEK-Gα16 cells stably expressing the human FPR2 receptor
# Assay type: cell-based
# STATED CONDITIONS: Table 4; value in parentheses, given mostly as fraction
Recorded FPR2 (% eff) by entry

MOLECULE: CCOP(=O)(O)CNC(=O)[C@@H](NC(=O)Nc1ccc(Br)cc1)[C@@H](C)CC
EXPERIMENTAL SYSTEM: human FPR2 receptor (Homo sapiens (Human), UniProt P25090)
FPR2 (% eff): 88%

MOLECULE: CCOP(=O)(CNC(=O)[C@H](CC(C)C)NC(=O)Nc1ccc(SC)cc1)OCC
EXPERIMENTAL SYSTEM: human FPR2 receptor (Homo sapiens (Human), UniProt P25090)
FPR2 (% eff): 91%

MOLECULE: CC(C)C[C@H](NC(=O)Nc1ccc(Br)cc1)C(=O)NCC(O)CO (some centres unmarked)
EXPERIMENTAL SYSTEM: human FPR2 receptor (Homo sapiens (Human), UniProt P25090)
FPR2 (% eff): 98%

MOLECULE: CCOP(=O)(O)CNC(=O)[C@H](Cc1ccccc1)NC(=O)Nc1ccc(Br)cc1
EXPERIMENTAL SYSTEM: human FPR2 receptor (Homo sapiens (Human), UniProt P25090)
FPR2 (% eff): 100%

MOLECULE: CCOP(=O)(CCNC(=O)CC1(C(C)C)NC(=O)N(NC(=O)Nc2ccc(Br)cc2)C1=O)OCC (centres unmarked)
EXPERIMENTAL SYSTEM: human FPR2 receptor (Homo sapiens (Human), UniProt P25090)
FPR2 (% eff): 100%

MOLECULE: CSc1ccc(NC(=O)C2C(C(=O)O)C3C=CC2C32CC2)cc1 (centres unmarked)
EXPERIMENTAL SYSTEM: human FPR2 receptor (Homo sapiens (Human), UniProt P25090)
FPR2 (% eff): 96%

MOLECULE: CCC[C@H](NC(=O)Nc1ccc(Br)cc1)C(=O)NCP(=O)(OCC)OCC
EXPERIMENTAL SYSTEM: human FPR2 receptor (Homo sapiens (Human), UniProt P25090)
FPR2 (% eff): 100%

MOLECULE: CC(C)C[C@H](NC(=O)Nc1ccc(Br)cc1)C(=O)NCc1cc(O)no1
EXPERIMENTAL SYSTEM: human FPR2 receptor (Homo sapiens (Human), UniProt P25090)
FPR2 (% eff): 100%
